Each recorded value in this set is attributed to patent US20230064983A1.

Target: EGFR with insertion SVD between D770 and N771 (mutEGFR D770_N771insSVD) (Homo sapiens, UniProt P00533, DUP768-770)
Construct: amino acids R669 to A1210; made in house; host or cells: Sf9 insect cells (baculovirus)
Sequence (P00533 other isoform, or with tags, fused parts or gaps DUP768-770): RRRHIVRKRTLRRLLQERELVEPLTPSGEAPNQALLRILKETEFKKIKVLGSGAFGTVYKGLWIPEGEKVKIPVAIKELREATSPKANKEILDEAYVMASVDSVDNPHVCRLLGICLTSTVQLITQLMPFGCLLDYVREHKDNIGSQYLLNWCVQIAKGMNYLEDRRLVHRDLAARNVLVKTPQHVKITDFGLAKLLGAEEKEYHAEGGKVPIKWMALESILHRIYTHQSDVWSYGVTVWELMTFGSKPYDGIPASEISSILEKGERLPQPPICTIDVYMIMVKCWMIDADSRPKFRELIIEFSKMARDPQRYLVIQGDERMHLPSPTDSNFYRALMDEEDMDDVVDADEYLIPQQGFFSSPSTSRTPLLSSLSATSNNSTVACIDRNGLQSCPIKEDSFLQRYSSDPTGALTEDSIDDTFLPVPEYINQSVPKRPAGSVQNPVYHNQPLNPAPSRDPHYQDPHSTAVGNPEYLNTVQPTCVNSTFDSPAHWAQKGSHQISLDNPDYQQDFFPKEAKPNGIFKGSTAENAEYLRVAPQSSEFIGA
Test: Exon20-Mutant-EGFR(D770_N771insSVD) kinase assay (TR-FRET)
Assay type: biochemical
Settings: 2 mM ATP, Table 2
MEASUREMENT KIND: mutEGFR (D770_N771insSVD) kinase assay IC50 (pM)

A: COc1c(Cl)cccc1Nc1c(-c2ccncc2OCC2(C)CCO2)[nH]c2c1C(=O)NCC2CCO (single isomer, unassigned) [Example 23]
B: COc1c(Cl)cccc1Nc1c(-c2ccncc2OC[C@@H]2CCCO2)[nH]c2c1C(=O)NCC2CCO (mixture of isomers) [Example 16]
C: COc1c(Cl)cccc1Nc1c(-c2ccncc2OCC(C)(C)OC)[nH]c2c1C(=O)NCC2CCO (stereo not drawn) [Example 13]
Task item: Using the list above, order everything by rising mutEGFR (D770_N771insSVD) kinase assay IC50. Quick reminder: the answer is the labels in the order asked.
Reply: C, B, A
